Assay: NCI Yeast Anticancer Drug Screen. Data for the mec2-1 strain (AID 157)
Conditions: S. cerevisiae mec2-1 strain, at 50.0 µM
The panel holds about 79,000 compounds, 15% with a hit somewhere; the sample as a whole holds those more often. Activity calls are given as the source filed them. No stated cut-off is given here; in the data, active means growth inhibition above about 70%; inactive means the rest.
Please answer using one outcome listed in active, inactive

Record lookup: outcome of this test for O=C1NC(N2CCCCC2)=N/C1=C\c1ccco1 ? inactive

Record lookup: outcome of this test for C[C@H](CCc1nc(C#N)c(N)o1)[C@H]1CC[C@H]2[C@@H]3CCC4C[C@@H](O)CC[C@]4(C)[C@H]3C[C@@H](O)[C@]12C (stereo not given in full) ? active

Record lookup: outcome of this test for CSCCCNC(=O)NS(=O)(=O)c1ccc(C)cc1 ? inactive

Record lookup: outcome of this test for O=[N+]([O-])c1cc(Cl)ccc1NC(Nc1ccc(Cl)cc1[N+](=O)[O-])C(Cl)(Cl)Cl ? inactive

Record lookup: outcome of this test for Cc1cc2nc3c(=O)[nH]c(=O)nc-3n(CCN(CCO)CCO)c2cc1Cl ? inactive

###

Assay: NCI Yeast Anticancer Drug Screen. Data for the rad50 strain (AID 155)
Conditions: S. cerevisiae rad50 strain growth inhibition; at 50.0 µM
About 79,000 compounds went through this panel and 15% of them were active in at least one assay; those are over-represented in the sample as a whole. Active and inactive are the calls of the source. Cut-off read from the data, not from the text of the source: active = growth inhibition above about 70%; inactive = the rest. Where a SMILES comes first, the peptide text is derived from it. [ ]: non-standard residue; d: D form. The star is where a group is joined. Nle = CCCC[CH](N)C(=O)O; Cbz = O=C(OCc1ccccc1)*; OBn = c1ccc(CO*)cc1
Please answer using one outcome listed in active, inactive

Record lookup: outcome of this test for Cc1ccc(N(C(=O)CC(=O)N/N=C/c2ccccc2O)C(=O)c2ccccc2)cc1 ? inactive

Record lookup: outcome of this test for Cc1ccc(-c2nnc(-c3cccc4ccccc34)o2)cc1 ? inactive

Record lookup: outcome of this test for COC(=O)CCC(CCc1ccccc1)(C(C)=O)C(C)=O ? inactive

Record lookup: outcome of this test for Cc1ccc(C)c2c3c(sc12)CCCC3 ? inactive

Record lookup: outcome of this test for O=P(O)(Cc1ccccc1)OCC1(O)OCC(O)C(O)C1O (configuration not stated) ? inactive

Record lookup: outcome of this test for COc1ccc(-c2cc(=O)c3c(O)cc(O)cc3o2)c(OC)c1OC ? inactive

Record lookup: outcome of this test for Cc1ccc(-c2ccno2)cc1 ? inactive

Record lookup: outcome of this test for Cc1cc(Nc2ccc(O)cc2)nc(Nc2ccc(O)cc2)n1 ? inactive

Record lookup: outcome of this test for COc1ccccc1NCS(=O)(=O)O ? inactive

Record lookup: outcome of this test for Nc1nc2[nH]c(=O)c(C(=O)O)nc2c(=O)[nH]1 ? inactive

Record lookup: outcome of this test for Cc1ccccc1NC(=O)C(=O)CC(=O)c1sc(Nc2ccccc2[N+](=O)[O-])nc1C ? inactive

Record lookup: outcome of this test for COCc1cc(C(C)(C)C)cc(CNC2CCCCC2)c1O ? inactive

Record lookup: outcome of this test for Cc1c(C(=O)O)c2ccccc2[nH]c1=O ? inactive

Record lookup: outcome of this test for O=[N+]([O-])c1c(F)cc(F)cc1F ? inactive

Record lookup: outcome of this test for S=C(NCc1ccccc1)Nc1ncn[nH]1 ? inactive

Record lookup: outcome of this test for O=[N+]([O-])c1ccc(N=NN2CCOCC2)cc1 ? inactive

Record lookup: outcome of this test for CC(=O)OCC1OC(n2c(C)cc(C)c(C#N)c2=S)C(OC(C)=O)C(OC(C)=O)C1OC(C)=O (configuration not stated) ? inactive

Record lookup: outcome of this test for O=C1CCSc2nc(-c3ccc4c(c3)OCO4)nn21 ? inactive

Record lookup: outcome of this test for CC(=O)CC(=O)NCc1ccncc1 ? inactive

Record lookup: outcome of this test for Cc1cc(N(C)C)c([N+](=O)[O-])cc1C=O ? inactive

Record lookup: outcome of this test for CC(C)c1cccc(C(C)C)c1NC(=O)OC1CCCCC1C (configuration not stated) ? inactive

Record lookup: outcome of this test for Cc1cc(N)c2cc(N)ccc2n1 ? active

Record lookup: outcome of this test for CCCCC(=CC(C)(C)C)CCCC ? inactive

Record lookup: outcome of this test for CC(C)(c1ccc([N+](=O)[O-])cc1)[N+](=O)[O-] ? inactive

Record lookup: outcome of this test for CCC1(CCC(C)C)C(=O)NC(=Nc2ccccc2)N(c2ccccc2)C1=O (configuration not stated) ? inactive

Record lookup: outcome of this test for CN(C)c1ccc(C(=C2C=CC(=[N+](C)C)C=C2)c2c(O)c(S(=O)(=O)[O-])cc3cc(S(=O)(=O)O)ccc23)cc1 ? inactive

Record lookup: outcome of this test for CN1CCc2[nH]nc(-c3n[nH]c4c3CN(C)CC4)c2C1 ? inactive

Record lookup: outcome of this test for O=C(N/N=C/c1ccc(Br)cc1)N/N=C/c1ccc(Br)cc1 ? inactive

Record lookup: outcome of this test for CC(=O)Oc1cc(OC(C)=O)c(OC(C)=O)c2c1CCCC2 ? inactive

Record lookup: outcome of this test for CCN(CCOC(=O)Nc1cccc(C(C)=O)c1)c1ccccc1 ? active

Record lookup: outcome of this test for CCOS(=O)(=O)c1ccc(F)c([N+](=O)[O-])c1 ? inactive

Record lookup: outcome of this test for COc1cc(/C=C/c2ccnc3ccccc23)ccc1N(C)C ? inactive

Record lookup: outcome of this test for CN(C)C=Nc1cc2c(cc1Br)-c1ccccc1C2=O ? inactive

Record lookup: outcome of this test for COc1ccc(CCNC(=S)N/C=C(\C#N)S(=O)(=O)c2ccc(C)cc2)cc1OC ? inactive

Record lookup: outcome of this test for COc1ccc(C2OCC3(O)C(c4ccc(OC)c(OC)c4)OCC23)cc1OC (configuration not stated) ? inactive

Record lookup: outcome of this test for CCCCC1(CCO)C(=O)N=C(N)NC1=O (configuration not stated) ? inactive

Record lookup: outcome of this test for COc1cc2c(oc(=O)c3c4occc4cc(OC)c23)c2cccc(OCc3ccccc3)c12 ? inactive

Record lookup: outcome of this test for CCCCC(NC(=O)C1CCCN1C(=O)OCc1ccccc1)C(=O)OCc1ccccc1 (stereo not drawn) (Cbz-Pro-[Nle]-OBn; configuration not given here) ? inactive

Record lookup: outcome of this test for c1ccc(Nc2nnc(Nc3ccccc3)s2)cc1 ? inactive

Record lookup: outcome of this test for CC(=O)Oc1ccc(OC(C)=O)c([N+](=O)[O-])c1 ? inactive

Record lookup: outcome of this test for O=C1CCSSCCC(=O)NCCCN1 ? inactive

Record lookup: outcome of this test for O=c1[nH]c2c(Cl)c(Cl)cc(Cl)c2o1 ? inactive

Record lookup: outcome of this test for Cc1no[n+]([O-])c1C(=O)NN ? inactive

Record lookup: outcome of this test for Cc1nn(C)c2c1C(=O)N(C)CC(=O)N2C ? inactive

Record lookup: outcome of this test for CC(NC(=O)OCC[P+](c1ccccc1)(c1ccccc1)c1ccccc1)C(=O)O (configuration not stated) ? inactive

Record lookup: outcome of this test for CC1=C/C(=N\N(C)C)C(C(O)(C(F)(F)F)C(F)(F)F)C(C)(C)C1 (configuration not stated) ? inactive

Record lookup: outcome of this test for c1ccc(-c2n[nH]c(-c3[nH]nc(-c4ccccc4)c3-c3ccccc3)c2-c2ccccc2)cc1 ? inactive
